target: dAsCas12a S542R (Acidaminococcus sp., UniProt U2UMQ6 1-1307, S542R;D908A;E993A;D1235A); assay: Spec-seq (native PAGE EMSA with sequencing of bound and unbound); 25 mM Tris-HCl pH 7.4, 150 mM KCl, 5 mM MgCl2, 10% glycerol, 1 mM DTT, 40 ng/uL salmon sperm DNA; 400 nM Cas12a, 480 nM crRNA, 50 nM library, 37 C 1 h; native PAGE at room temperature; high values mean tight binding; conditions: protein: recombinant;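 note: relative affinity from the bound to unbound sequence frequency ratio in Spec-seq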
quantityMeasured: binding signal (lnKA)
Numbers only, in lnKA.

# annotated cases, reported binding signal shown
{"binder": "CCCG (dsDNA) DNA 1: GCTATCTAGTGCTCAGTACGCACTGCCCGAGGAAACTTCTGGCAGGACCAGGTCATGAGATCGGAAGAGCACACGTCTGAACTCCAGTCA DNA 2: TGACTGGAGTTCAGACGTGTGCTCTTCCGATCTCATGACCTGGTCCTGCCAGAAGTTTCCTCGGGCAGTGCGTACTGAGCACTAGATAGC RNA: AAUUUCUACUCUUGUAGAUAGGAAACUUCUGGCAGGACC", "unitName": "lnKA", "binding signal": -6.18}
{"binder": "ACCT (dsDNA) DNA 1: GCTATCTAGTGCTCAGTACGCACTGACCTAGGAAACTTCTGGCAGGACCAGGTCATGAGATCGGAAGAGCACACGTCTGAACTCCAGTCA DNA 2: TGACTGGAGTTCAGACGTGTGCTCTTCCGATCTCATGACCTGGTCCTGCCAGAAGTTTCCTAGGTCAGTGCGTACTGAGCACTAGATAGC RNA: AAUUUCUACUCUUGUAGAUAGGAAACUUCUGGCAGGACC", "unitName": "lnKA", "binding signal": -7.8}
{"binder": "GTTG (dsDNA) DNA 1: GCTATCTAGTGCTCAGTACGCACTGGTTGAGGAAACTTCTGGCAGGACCAGGTCATGAGATCGGAAGAGCACACGTCTGAACTCCAGTCA DNA 2: TGACTGGAGTTCAGACGTGTGCTCTTCCGATCTCATGACCTGGTCCTGCCAGAAGTTTCCTCAACCAGTGCGTACTGAGCACTAGATAGC RNA: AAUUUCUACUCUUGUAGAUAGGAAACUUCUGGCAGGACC", "unitName": "lnKA", "binding signal": -5.32}
{"binder": "TCCA (dsDNA) DNA 1: GCTATCTAGTGCTCAGTACGCACTGTCCAAGGAAACTTCTGGCAGGACCAGGTCATGAGATCGGAAGAGCACACGTCTGAACTCCAGTCA DNA 2: TGACTGGAGTTCAGACGTGTGCTCTTCCGATCTCATGACCTGGTCCTGCCAGAAGTTTCCTTGGACAGTGCGTACTGAGCACTAGATAGC RNA: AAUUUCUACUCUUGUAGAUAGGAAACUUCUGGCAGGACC", "unitName": "lnKA", "binding signal": -3.52}
{"binder": "CCGT (dsDNA) DNA 1: GCTATCTAGTGCTCAGTACGCACTGCCGTAGGAAACTTCTGGCAGGACCAGGTCATGAGATCGGAAGAGCACACGTCTGAACTCCAGTCA DNA 2: TGACTGGAGTTCAGACGTGTGCTCTTCCGATCTCATGACCTGGTCCTGCCAGAAGTTTCCTACGGCAGTGCGTACTGAGCACTAGATAGC RNA: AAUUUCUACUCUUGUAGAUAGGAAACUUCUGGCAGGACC", "unitName": "lnKA", "binding signal": -8.47}

# batch size: 4; output binding signal per entry
1. GCGT (dsDNA) DNA 1: GCTATCTAGTGCTCAGTACGCACTGGCGTAGGAAACTTCTGGCAGGACCAGGTCATGAGATCGGAAGAGCACACGTCTGAACTCCAGTCA DNA 2: TGACTGGAGTTCAGACGTGTGCTCTTCCGATCTCATGACCTGGTCCTGCCAGAAGTTTCCTACGCCAGTGCGTACTGAGCACTAGATAGC RNA: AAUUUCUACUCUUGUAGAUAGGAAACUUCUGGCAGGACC
2. AAAA (dsDNA) DNA 1: GCTATCTAGTGCTCAGTACGCACTGAAAAAGGAAACTTCTGGCAGGACCAGGTCATGAGATCGGAAGAGCACACGTCTGAACTCCAGTCA DNA 2: TGACTGGAGTTCAGACGTGTGCTCTTCCGATCTCATGACCTGGTCCTGCCAGAAGTTTCCTTTTTCAGTGCGTACTGAGCACTAGATAGC RNA: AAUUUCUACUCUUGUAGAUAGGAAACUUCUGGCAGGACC
3. GAAA (dsDNA) DNA 1: GCTATCTAGTGCTCAGTACGCACTGGAAAAGGAAACTTCTGGCAGGACCAGGTCATGAGATCGGAAGAGCACACGTCTGAACTCCAGTCA DNA 2: TGACTGGAGTTCAGACGTGTGCTCTTCCGATCTCATGACCTGGTCCTGCCAGAAGTTTCCTTTTCCAGTGCGTACTGAGCACTAGATAGC RNA: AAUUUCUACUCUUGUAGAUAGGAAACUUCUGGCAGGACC
4. TTTT (dsDNA) DNA 1: GCTATCTAGTGCTCAGTACGCACTGTTTTAGGAAACTTCTGGCAGGACCAGGTCATGAGATCGGAAGAGCACACGTCTGAACTCCAGTCA DNA 2: TGACTGGAGTTCAGACGTGTGCTCTTCCGATCTCATGACCTGGTCCTGCCAGAAGTTTCCTAAAACAGTGCGTACTGAGCACTAGATAGC RNA: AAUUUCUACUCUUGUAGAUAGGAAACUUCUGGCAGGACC

1. -8.52
2. -8.41
3. -8.7
4. -2.76

Quick one: binding signal of GGTG (dsDNA) DNA 1: GCTATCTAGTGCTCAGTACGCACTGGGTGAGGAAACTTCTGGCAGGACCAGGTCATGAGATCGGAAGAGCACACGTCTGAACTCCAGTCA DNA 2: TGACTGGAGTTCAGACGTGTGCTCTTCCGATCTCATGACCTGGTCCTGCCAGAAGTTTCCTCACCCAGTGCGTACTGAGCACTAGATAGC RNA: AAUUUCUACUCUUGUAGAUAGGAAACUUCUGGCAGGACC ?
-8.15
